TARGET_OF_ASSAY: GST-Lok (Homo sapiens, UniProt O94804)
Construct: GST
Sequence (O94804 whole entry): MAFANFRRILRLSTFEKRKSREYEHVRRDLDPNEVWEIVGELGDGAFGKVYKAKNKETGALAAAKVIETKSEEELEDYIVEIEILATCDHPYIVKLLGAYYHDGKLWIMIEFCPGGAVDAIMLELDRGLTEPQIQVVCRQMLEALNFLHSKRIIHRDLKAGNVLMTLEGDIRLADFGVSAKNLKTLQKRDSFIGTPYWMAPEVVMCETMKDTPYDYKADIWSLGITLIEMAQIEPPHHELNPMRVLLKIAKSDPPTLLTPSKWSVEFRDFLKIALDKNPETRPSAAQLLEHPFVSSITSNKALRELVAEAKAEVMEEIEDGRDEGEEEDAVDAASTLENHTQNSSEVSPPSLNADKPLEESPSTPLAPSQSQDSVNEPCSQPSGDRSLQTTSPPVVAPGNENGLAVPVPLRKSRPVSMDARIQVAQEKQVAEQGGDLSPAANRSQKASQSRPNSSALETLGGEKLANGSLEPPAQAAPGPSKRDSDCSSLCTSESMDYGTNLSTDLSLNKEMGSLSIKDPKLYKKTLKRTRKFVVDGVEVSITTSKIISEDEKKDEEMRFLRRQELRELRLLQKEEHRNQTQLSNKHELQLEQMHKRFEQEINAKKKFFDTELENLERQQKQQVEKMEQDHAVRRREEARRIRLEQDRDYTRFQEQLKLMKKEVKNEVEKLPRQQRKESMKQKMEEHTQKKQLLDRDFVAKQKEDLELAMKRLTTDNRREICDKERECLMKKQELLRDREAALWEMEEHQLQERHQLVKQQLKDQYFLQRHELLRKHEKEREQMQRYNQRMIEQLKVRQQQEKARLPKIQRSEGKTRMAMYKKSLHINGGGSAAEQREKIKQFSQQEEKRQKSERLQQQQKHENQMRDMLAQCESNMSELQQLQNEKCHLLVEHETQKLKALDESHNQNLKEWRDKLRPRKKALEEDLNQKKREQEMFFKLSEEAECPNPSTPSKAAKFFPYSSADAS
PROCEDURE_SUMMARY: Kinase assay for recombinant Lok
STUDY_CONDITIONS: 25 μM ATP, 100 μM AXLTIDE substrate
MEASUREMENT_TYPE: IC50 (nM)
Report only the number, with the unit nM understood.

Request: Could you tell me which IC50 is on file for CC(C)CCN1c2nc(Nc3cc(F)c(O)c(F)c3)ncc2N(C)C(=O)C1C (stereo not shown) ?
Response: 500
